Tested on: Thyroperoxidase (TPO), gene 54314
Experiment: CCTE_Simmons_AUR_rTPO: CCTE's Amplex UltraRed Assay for Thyroperoxidase (TPO) Inhibition, Simmons Lab (AID 2283662)
Activity calls are given as the source filed them. The calls were made as follows: active = hit-call score of the fitted dose curve at least 0.9, where 1 is the maximum; inconclusive = response in the unintended direction; inactive = score below 0.9.
Reply using exactly one outcome from true (1) for active, false (0) for inactive

GET /call?item= COc1ccccc1O returns the recorded outcome of this test.
true (1)

GET /call?item= O=C(O)CS returns the recorded outcome of this test.
false (0)

GET /call?item= CCCc1ccc(O)cc1 returns the recorded outcome of this test.
false (0)

GET /call?item= O=c1cc(-c2ccc(O)cc2)oc2cc(O)cc(O)c12 returns the recorded outcome of this test.
true (1)

GET /call?item= C[C@]12CC[C@@H]3c4ccc(O)cc4CC[C@H]3[C@@H]1CC[C@@H]2O returns the recorded outcome of this test.
true (1)

GET /call?item= CCCCCCOc1ccc(O)cc1 returns the recorded outcome of this test.
true (1)

GET /call?item= CC(=O)Nc1cc(S(=O)(=O)O)cc2cc(S(=O)(=O)O)c(N=Nc3ccccc3)c(O)c12 returns the recorded outcome of this test.
true (1)

GET /call?item= O=C(O)C1=NN(c2ccc(S(=O)(=O)O)cc2)C(=O)C1 returns the recorded outcome of this test.
true (1)

GET /call?item= C#C[C@]1(O)CC[C@H]2[C@@H]3CCc4cc(O)ccc4[C@H]3CC[C@@]21C returns the recorded outcome of this test.
true (1)

GET /call?item= Cc1cccc(O)c1 returns the recorded outcome of this test.
true (1)

GET /call?item= O=C1OC2(c3ccc(O)cc3Oc3cc(O)ccc32)c2ccccc21 returns the recorded outcome of this test.
true (1)

GET /call?item= CCc1cccc(O)c1 returns the recorded outcome of this test.
true (1)

GET /call?item= CCCCCCCCCCCCOCCOS(=O)(=O)O returns the recorded outcome of this test.
true (1)

====

Read-out: Interferon-gamma inducible Protein 10 (IP10), CXCL10 (gene 3627)
Assay: BSK_KF3CT_IP10: BioMAP Diversity Plus: KF3CT Assay for Interferon-gamma inducible Protein 10 (IP10) Biomarker Activity (AID 2283068)
Settings: primary human keratinocytes with fibroblasts; actives raise or lower the signal
The source made the active and inactive calls. Rule for the calls: active = hit-call score of the fitted dose curve at least 0.9, where 1 is the maximum; inactive = score below 0.9.
Reply using exactly one outcome from Yes (active), No (inactive)

GET /call?item= CC(C)(CO)CO returns the recorded outcome of this test.
No

GET /call?item= CCC(=O)OCC=Cc1ccccc1 returns the recorded outcome of this test.
No

GET /call?item= C[C@]12CC[C@@H]3c4ccc(O)cc4CC[C@H]3[C@@H]1CC[C@@H]2O returns the recorded outcome of this test.
No

GET /call?item= O=S(=O)(O)C(F)(F)C(F)(F)OC(F)(F)C(F)(F)F returns the recorded outcome of this test.
No

GET /call?item= CCCCCCCC1CCCC1=O (stereo not drawn) returns the recorded outcome of this test.
No

GET /call?item= NC(=O)c1c(Cl)cccc1Cl returns the recorded outcome of this test.
No

GET /call?item= CC1=CC(C)C(C=O)C(C)C1 (stereo not drawn) (tested in a mixture with another compound) returns the recorded outcome of this test.
No

GET /call?item= c1ccc2c(c1)-c1ccc3ccc4cccc5cc-2c1c3c45 returns the recorded outcome of this test.
No

GET /call?item= CCn1cc(C(=O)O)c(=O)c2ccc(C)nc21 returns the recorded outcome of this test.
No

GET /call?item= CCCCN(CCO)CCO returns the recorded outcome of this test.
No

GET /call?item= C=C1CC/C=C(\C)CC[C@@H]2[C@@H]1CC2(C)C returns the recorded outcome of this test.
Yes

GET /call?item= CC(=O)c1ccc(C)cc1 returns the recorded outcome of this test.
No

GET /call?item= COC(=O)c1ccc(C(=O)OC)cc1 returns the recorded outcome of this test.
No

====

Experiment: ATG_XTT_Cytotoxicity: Cytotoxicity Assessment in the Attagene TRANS-FACTORIAL HepG2 Assay (AID 2283584)
Description: ATG_XTT_Cytotoxicity is a cell-based, single-readout assay that uses HepG2, a human liver cell line, with measurements taken at 24 hours after chemical dosing in a 24-well plate.ATG_XTT_Cytotoxicity is one of one assay component(s) measured or calculated from the ATG_XTT_Cytotoxicity assay. […] This assay endpoint, ATG_XTT_Cytotoxicity, was analyzed in the positive analysis fitting direction relative to DMSO as the negative control and baseline of activity. […]
Inconclusive results are not listed. Active and inactive are the calls of the source. How the source made its calls: active means hit-call score of the fitted dose curve at least 0.9, where 1 is the maximum; inconclusive means response in the unintended direction; inactive means score below 0.9.
Reply using exactly one outcome from label 1 = active, label 0 = inactive

GET /call?item= CC(=O)c1ccc(C)cc1 returns the recorded outcome of this test.
label 0

GET /call?item= CCCCCCCCCOS(=O)(=O)O returns the recorded outcome of this test.
label 0

GET /call?item= OCCCO returns the recorded outcome of this test.
label 0

GET /call?item= CCOC(=O)COC(=O)c1ccccc1C(=O)OCC returns the recorded outcome of this test.
label 0

GET /call?item= Cc1ccncc1 returns the recorded outcome of this test.
label 0

GET /call?item= CC(=O)Nc1cc(S(=O)(=O)O)cc2cc(S(=O)(=O)O)c(N=Nc3ccccc3)c(O)c12 returns the recorded outcome of this test.
label 0

GET /call?item= Cc1ccc(C(C)(C)O)cc1 returns the recorded outcome of this test.
label 0

GET /call?item= C=CC(=O)OCC(CO)(COC(=O)C=C)COC(=O)C=C returns the recorded outcome of this test.
label 0

GET /call?item= CC12CCC(C1)C(C)(C)C2O (stereo not given) returns the recorded outcome of this test.
label 0

GET /call?item= CCC(CC)CO returns the recorded outcome of this test.
label 0

GET /call?item= CCCCCCCOC(C)=O returns the recorded outcome of this test.
label 0

GET /call?item= CC(C)N(c1ccccc1)C(C)C returns the recorded outcome of this test.
label 0

GET /call?item= O=S1(=O)CC(Cl)(Cl)C(Cl)(Cl)C1 returns the recorded outcome of this test.
label 1

GET /call?item= CCNC(=S)NCC returns the recorded outcome of this test.
label 0

GET /call?item= C[C@]12CC[C@@H]3c4ccc(O)cc4CC[C@H]3[C@@H]1CC[C@@H]2O returns the recorded outcome of this test.
label 0

====

Target: Estrogen receptor (Homo sapiens)
Experiment: ATG_ERa_TRANS: Attagene TRANS-FACTORIAL HepG2 Assay for human Estrogen Receptor alpha (ERa) (AID 2282970)
Conditions: HepG2 Attagene TRANS ERa GAL4 reporter, mRNA
Inconclusive results are not listed. Activity calls are given as the source filed them. How the source made its calls: active means hit-call score of the fitted dose curve at least 0.9, where 1 is the maximum; inconclusive means response in the unintended direction; inactive means score below 0.9.
reported_metric: AC50

CC(C)C(=O)OCC=Cc1ccccc1; inactive
COc1ccc(C(C)=O)cc1; inactive
CCCCCCOC(C)=O; inactive
C=C/C(C)=C/C/C=C(\C)CCC=C(C)C; inactive
c1ccc(Cc2ccccc2)cc1; inactive

Which AC50 is listed for Brc1cc(Br)cc(Br)c1 ?
inactive

Which AC50 is listed for O=C(O)c1ccc(C(=O)O)c(C(=O)O)c1 ?
inactive

Which AC50 is listed for COc1ccc2[nH]cc(CCNC(C)=O)c2c1 ?
inactive

Which AC50 is listed for COc1ccc(N)c(C)c1 ?
56.5 µM (active)

Which AC50 is listed for CC/C=C\CCOC(C)OCC (configuration not stated) ?
inactive

Which AC50 is listed for CC(=O)OC/C=C(C)/C=C/C=C(C)/C=C/C1=C(C)CCCC1(C)C ?
inactive

====

Target: Hypoxia-inducible factor 1-alpha (Homo sapiens) (UniProt Q16665)
Sequence (Q16665 whole entry, looked up): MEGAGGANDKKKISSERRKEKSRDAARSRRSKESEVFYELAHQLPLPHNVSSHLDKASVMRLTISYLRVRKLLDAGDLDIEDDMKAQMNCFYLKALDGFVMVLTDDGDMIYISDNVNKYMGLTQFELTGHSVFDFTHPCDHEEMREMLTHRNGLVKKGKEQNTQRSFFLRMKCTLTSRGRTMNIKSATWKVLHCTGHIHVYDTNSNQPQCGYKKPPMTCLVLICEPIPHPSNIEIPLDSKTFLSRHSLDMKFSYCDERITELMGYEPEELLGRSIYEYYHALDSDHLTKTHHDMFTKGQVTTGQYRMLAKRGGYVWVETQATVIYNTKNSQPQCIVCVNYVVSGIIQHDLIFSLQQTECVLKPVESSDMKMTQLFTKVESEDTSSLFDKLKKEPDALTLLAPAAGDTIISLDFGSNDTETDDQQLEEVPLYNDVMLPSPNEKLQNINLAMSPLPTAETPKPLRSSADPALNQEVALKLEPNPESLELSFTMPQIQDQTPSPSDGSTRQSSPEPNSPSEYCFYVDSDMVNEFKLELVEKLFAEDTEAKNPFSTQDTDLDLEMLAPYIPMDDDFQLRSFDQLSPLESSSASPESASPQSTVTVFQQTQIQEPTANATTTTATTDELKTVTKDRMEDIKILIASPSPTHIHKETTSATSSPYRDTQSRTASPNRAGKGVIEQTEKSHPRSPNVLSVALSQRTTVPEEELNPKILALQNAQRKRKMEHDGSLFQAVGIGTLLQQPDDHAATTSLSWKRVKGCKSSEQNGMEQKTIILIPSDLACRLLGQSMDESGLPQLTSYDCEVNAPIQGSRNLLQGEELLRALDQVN
Assay: ATG_HIF1a_CIS: Attagene CIS-FACTORIAL HepG2 Assay for human Hypoxia Inducible Factor 1 (HIF1A) (AID 2282951)
Conditions: HepG2 Attagene cis-factorial HIF1a reporter transcription; actives raise or lower the signal
Activity calls are given as the source filed them. Rule for the calls: active = hit-call score of the fitted dose curve at least 0.9, where 1 is the maximum; inactive = score below 0.9.
Reply using exactly one outcome from active, inactive

GET /call?item= [Na+] returns the recorded outcome of this test.
inactive

GET /call?item= CCNC(=S)NCC returns the recorded outcome of this test.
inactive

GET /call?item= CC(=O)CC(=O)N(C)C returns the recorded outcome of this test.
inactive

GET /call?item= CC/C=C\CCOC(C)OCC (stereo not drawn) returns the recorded outcome of this test.
inactive

GET /call?item= CCCCOC(=O)C(C)OC(=O)CCC (stereo not drawn) returns the recorded outcome of this test.
inactive

GET /call?item= N#CCCCC(C#N)CCC#N (stereo not drawn) returns the recorded outcome of this test.
inactive

GET /call?item= CCCCCCC(C)O (stereo not drawn) returns the recorded outcome of this test.
inactive

GET /call?item= CCCCOCCOC(=O)c1ccccc1C(=O)OCCOCCCC returns the recorded outcome of this test.
inactive

GET /call?item= CC(=O)OC/C=C(C)/C=C/C=C(C)/C=C/C1=C(C)CCCC1(C)C returns the recorded outcome of this test.
inactive

GET /call?item= CC1=C(C=O)C(C)(C)CCC1 returns the recorded outcome of this test.
inactive

GET /call?item= O=C1CCC(=O)N1 returns the recorded outcome of this test.
active

GET /call?item= CC(=O)CCC=C(C)CCC=C(C)C returns the recorded outcome of this test.
inactive

GET /call?item= CCCCC(CC)COCCO (stereo not drawn) returns the recorded outcome of this test.
inactive

GET /call?item= CCCC(O)C(CC)CO (stereo not drawn) returns the recorded outcome of this test.
inactive

GET /call?item= CCCCCCCC(=O)N(C)C returns the recorded outcome of this test.
inactive

GET /call?item= CCCCCCCCCCO[C@@H]1O[C@H](CO)[C@@H](O)[C@H](O)[C@H]1O returns the recorded outcome of this test.
inactive

GET /call?item= CCOC(=O)C(=O)OCC returns the recorded outcome of this test.
inactive

GET /call?item= CCCCCCCCCCCCS returns the recorded outcome of this test.
inactive

GET /call?item= CC(C)CCOC(=O)CC(C)C returns the recorded outcome of this test.
inactive

GET /call?item= [O-]/[N+](=N\O)c1ccccc1 returns the recorded outcome of this test.
inactive

GET /call?item= CCCCCCCCCCCCCCCCCC(=O)OCCCCCCCCCCCCCC(C)C returns the recorded outcome of this test.
inactive

GET /call?item= CC(=N[Si](C)(C)C)O[Si](C)(C)C returns the recorded outcome of this test.
inactive

GET /call?item= CCC(C)(C)C1CCC(OC)CC1 (stereo not drawn) returns the recorded outcome of this test.
inactive

GET /call?item= Nc1ccc(O)c(N)c1 returns the recorded outcome of this test.
inactive

GET /call?item= CC(=O)Nc1cc(S(=O)(=O)O)cc2cc(S(=O)(=O)O)c(N=Nc3ccccc3)c(O)c12 returns the recorded outcome of this test.
inactive

GET /call?item= C1COCO1 returns the recorded outcome of this test.
inactive

GET /call?item= CC(O)CNCC(C)O (stereo not drawn) returns the recorded outcome of this test.
inactive

GET /call?item= O=Cc1ccccc1O returns the recorded outcome of this test.
inactive

GET /call?item= CC(CCO)CC(C)(C)C (stereo not drawn) returns the recorded outcome of this test.
inactive

GET /call?item= CCCCCC#CC(=O)OC returns the recorded outcome of this test.
inactive

GET /call?item= CN(C)C(=O)Nc1ccccc1 returns the recorded outcome of this test.
inactive

GET /call?item= C=C/C(C)=C/C/C=C(\C)CCC=C(C)C returns the recorded outcome of this test.
inactive

GET /call?item= NCCN1CCNCC1 returns the recorded outcome of this test.
inactive
